experiment: Inhibition of Helicobacter pylori KDO8P
outcome measure: pIC50
Answers are plain numbers, as −log10 of the molar value.

So what's the measured pIC50 for this one? O=C(O)CN(C[C@@H](O)[C@@H](O)[C@H](O)[C@H](O)COP(=O)(O)O)CP(=O)(O)O
3.88
